Test: Inhibition of v-src (unknown origin)
quantity kind: pIC50
// scale note: pIC50 = -log10(conc_M); give the bare number

Guide cases for pIC50, answers given:
[[record]]
compound = "NC(Cc1c([Se][Se]c2[nH]c3ccccc3c2CC(N)C(=O)NCc2ccccc2)[nH]c2ccccc12)C(=O)NCc1ccccc1 (configuration not stated)"
quantity_kind = "pIC50"
obs_value = 5.70

[[record]]
compound = "CN(C)CCNC(=O)c1c([Se][Se]c2c(C(=O)NCCN(C)C)c3ccccc3n2C)n(C)c2ccccc12"
quantity_kind = "pIC50"
obs_value = 5.74

[[record]]
compound = "NC(Cc1c(SSc2[nH]c3ccccc3c2CC(N)C(=O)NCc2ccccc2)[nH]c2ccccc12)C(=O)NCc1ccccc1 (configuration not stated)"
quantity_kind = "pIC50"
obs_value = 5.15

[[record]]
compound = "CNC(=O)c1c(SSc2c(C(=O)NC)c3ccccc3n2C)n(C)c2ccccc12"
quantity_kind = "pIC50"
obs_value = 5.22


[in] What does the data say about its pIC50? Entry: CNC(=O)c1c([Se][Se]c2c(C(=O)NC)c3ccccc3n2C)n(C)c2ccccc12
[out] 6.40

[in] Then CCN(CC)CCn1c([Se][Se]c2c(C(=O)NC)c3ccccc3n2CCN(CC)CC)c(C(=O)NC)c2ccccc21 ?
[out] 5.77

[in] Then Cn1c([Se][Se]c2c(C(=O)OC(C)(C)C)c3ccccc3n2C)c(C(=O)OC(C)(C)C)c2ccccc21 ?
[out] 5.82

====

Target: Epidermal growth factor receptor (Homo sapiens, UniProt P00533)
Sequence (P00533 whole entry): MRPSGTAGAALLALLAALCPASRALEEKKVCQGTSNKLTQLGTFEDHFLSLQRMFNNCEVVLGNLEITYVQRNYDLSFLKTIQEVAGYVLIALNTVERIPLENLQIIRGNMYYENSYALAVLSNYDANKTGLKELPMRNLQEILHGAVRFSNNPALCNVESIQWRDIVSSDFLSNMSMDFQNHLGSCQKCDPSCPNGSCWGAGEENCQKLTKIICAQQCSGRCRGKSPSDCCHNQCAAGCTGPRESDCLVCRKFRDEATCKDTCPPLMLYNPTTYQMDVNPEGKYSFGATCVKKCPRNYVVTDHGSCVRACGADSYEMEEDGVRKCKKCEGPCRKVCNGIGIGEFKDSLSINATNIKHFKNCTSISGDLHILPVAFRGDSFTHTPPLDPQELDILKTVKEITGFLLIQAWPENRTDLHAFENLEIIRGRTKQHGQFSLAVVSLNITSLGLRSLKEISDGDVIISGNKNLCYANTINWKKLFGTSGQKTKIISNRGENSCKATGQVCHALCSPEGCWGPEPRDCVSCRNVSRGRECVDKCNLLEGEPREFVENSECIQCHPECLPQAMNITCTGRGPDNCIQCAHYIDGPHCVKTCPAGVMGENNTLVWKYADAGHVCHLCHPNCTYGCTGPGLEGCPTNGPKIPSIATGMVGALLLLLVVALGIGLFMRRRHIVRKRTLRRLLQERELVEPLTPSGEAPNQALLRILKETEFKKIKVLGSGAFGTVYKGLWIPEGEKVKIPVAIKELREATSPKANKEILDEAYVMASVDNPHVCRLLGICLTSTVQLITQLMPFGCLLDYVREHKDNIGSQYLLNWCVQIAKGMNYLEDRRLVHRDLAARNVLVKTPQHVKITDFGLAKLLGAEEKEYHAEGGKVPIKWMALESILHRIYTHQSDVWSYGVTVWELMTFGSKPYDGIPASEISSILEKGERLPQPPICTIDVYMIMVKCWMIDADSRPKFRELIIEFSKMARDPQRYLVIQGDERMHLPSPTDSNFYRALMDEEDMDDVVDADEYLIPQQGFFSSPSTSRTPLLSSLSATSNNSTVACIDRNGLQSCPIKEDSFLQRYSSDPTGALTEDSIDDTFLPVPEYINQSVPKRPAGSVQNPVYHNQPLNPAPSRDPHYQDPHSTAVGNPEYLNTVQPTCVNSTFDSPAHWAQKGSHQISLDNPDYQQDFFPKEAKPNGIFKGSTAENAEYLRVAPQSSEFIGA
Experiment: Inhibition of EGFR derived from human A-431 cells using copolymer of Glu/Ala/Tyr as substrate by scintillation counting method
pIC50: −log10 of the molar value.
The following compounds are listed with their measured pIC50 values.

[[record]]
structure_as_smiles = "Cc1ccc2c(c1)c(C(=O)Nc1ccccc1)c(SSc1c(C(=O)Nc3ccccc3)c3cc(C)ccc3n1C)n2C"
quantity_kind = "pIC50"
obs_value = "< 4.00"

[[record]]
structure_as_smiles = "Cc1ccc2c(C(=O)Nc3ccccc3)c(SSc3c(C(=O)Nc4ccccc4)c4ccc(C)cc4n3C)n(C)c2c1"
quantity_kind = "pIC50"
obs_value = "< 4.00"


Consider the additional compound presented here.
[in] What does the data say about its pIC50? Entry: Cn1c(SSc2c(C(=O)Nc3ccccc3)c3c(O)cccc3n2C)c(C(=O)Nc2ccccc2)c2c(O)cccc21
[out] < 4.00

====

Biological target: Proto-oncogene tyrosine-protein kinase Src (Homo sapiens)
Test: Inhibition of src (unknown origin)
quantity kind: pIC50
// scale note: pIC50 = -log10(conc_M); give the bare number

[in] What does the data say about its pIC50? Entry: O=C1/C(=N\c2ccc(Cl)cc2)c2ccccc2N1Cc1ccccc1
[out] 3.97

====

Molecular target: Proto-oncogene tyrosine-protein kinase Src (Homo sapiens, UniProt P12931)
Sequence (P12931 2-536 limits assumed): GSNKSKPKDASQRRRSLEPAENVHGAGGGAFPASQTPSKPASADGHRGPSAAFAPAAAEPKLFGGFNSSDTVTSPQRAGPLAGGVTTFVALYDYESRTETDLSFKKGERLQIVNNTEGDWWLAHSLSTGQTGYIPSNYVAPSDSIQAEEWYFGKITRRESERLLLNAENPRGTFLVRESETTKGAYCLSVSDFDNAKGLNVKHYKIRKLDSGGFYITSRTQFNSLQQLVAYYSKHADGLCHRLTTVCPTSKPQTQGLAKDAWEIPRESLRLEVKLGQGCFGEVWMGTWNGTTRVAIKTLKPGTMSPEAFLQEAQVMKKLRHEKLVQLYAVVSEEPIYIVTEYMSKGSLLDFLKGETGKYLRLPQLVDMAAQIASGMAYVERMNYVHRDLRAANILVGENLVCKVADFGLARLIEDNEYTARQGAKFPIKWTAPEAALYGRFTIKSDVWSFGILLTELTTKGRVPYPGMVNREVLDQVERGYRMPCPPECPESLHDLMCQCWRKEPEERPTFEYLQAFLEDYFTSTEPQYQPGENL
Test: Inhibition of p60 c-src (unknown origin)
quantity kind: IC50 (nM)
# output: bare number, implied unit nM

[in] Please provide the recorded IC50 for O=C(OCCN1CCCCC1)c1cc2ccccc2n1Cc1ccccc1 , tested on Proto-oncogene tyrosine-protein kinase Src (Homo sapiens, UniProt P12931).
[out] 1340

====

System: A549
Assay: Antiproliferative activity against human A549 cells assessed as cell growth inhibition
Format: functional, cell-based
quantity kind: IC50 (µM)
# output: bare number, implied unit µM

[in] What does the data say about its IC50? Entry: CCn1c(C)c(C(=O)NCc2ccc(F)cc2)c2cc(OCC(=O)NCCOc3ccccc3OC)ccc21
[out] 4.99

Provenance of the data: ChEMBL document CHEMBL5136983
